experiment: Selectivity index, ratio of CC50 for African green monkey Vero cells to MIC for antimycobacterial activity against Mycobacterium tuberculosis H37Ra ATCC 25197; format: toxicity; details: read-out: Selectivity Index
Quantity measured: selectivity ratio
Simply state the number, no unit and no words.

Completed entries (count: 3):
| Smiles str | selectivity ratio |
| --- | --- |
| O=C(NNC(=O)c1ccncc1)C(=O)Nc1ccccc1O | 3380 |
| O=C(NNC(=O)c1ccncc1)C(=O)Nc1ccc(Cl)cc1O | 1560 |
| O=C1Oc2ccccc2N/C1=C\C(=O)N1CCOCC1 | 155 |

Read the next record carefully.
Give its selectivity ratio value. Item: "O=C1Oc2ccccc2N/C1=C\C(=O)c1ccc(Cl)cc1"
94

###

assay: Selectivity index, ratio of CC50 for African green monkey Vero cells to MIC for antimycobacterial activity against Mycobacterium tuberculosis H37Ra ATCC 25197; type: toxicity; settings: read-out: Selectivity Index
List of selectivity ratio values.

| Smiles str | selectivity ratio |
| --- | --- |
| O=C1Oc2ccccc2N/C1=C\C(=O)c1ccccc1 | > 62 |

Give its selectivity ratio value. Item: "Cc1cccc(C(=O)/C=C2\Nc3ccccc3OC2=O)c1"
> 125

Give its selectivity ratio value. Item: "O=C1Oc2ccccc2N/C1=C\C(=O)c1cccs1"
> 250

Give its selectivity ratio value. Item: "O=C1Oc2ccccc2N/C1=C\C(=O)c1c[nH]c2ccccc12"
> 250

Give its selectivity ratio value. Item: "Cc1ccccc1C(=O)/C=C1\Nc2ccccc2OC1=O"
> 125

###

List of selectivity ratio values.
assay: Selectivity index, ratio of CC50 for African green monkey Vero cells to MIC for antimycobacterial activity against Mycobacterium tuberculosis H37Ra ATCC 25197; assay type: toxicity; settings: read-out: Selectivity Index

Give its selectivity ratio value. Item: "NNC(=O)c1ccncc1"
> 8000

Give its selectivity ratio value. Item: "COC(=O)/C=C1\Nc2ccccc2OC1=O"
> 125

Give its selectivity ratio value. Item: "O=C1Oc2ccccc2N/C1=C\C(=O)c1ccc(-c2ccccc2)cc1"
> 30

Give its selectivity ratio value. Item: "O=C1Oc2ccccc2N/C1=C\C(=O)c1ccncc1"
> 125
